Source of measurements: paper PMC5526615

STUDY_TARGET: SmPDE4A (Schistosoma mansoni)
Sequence (A0A5K4ENE3 entry or part of it): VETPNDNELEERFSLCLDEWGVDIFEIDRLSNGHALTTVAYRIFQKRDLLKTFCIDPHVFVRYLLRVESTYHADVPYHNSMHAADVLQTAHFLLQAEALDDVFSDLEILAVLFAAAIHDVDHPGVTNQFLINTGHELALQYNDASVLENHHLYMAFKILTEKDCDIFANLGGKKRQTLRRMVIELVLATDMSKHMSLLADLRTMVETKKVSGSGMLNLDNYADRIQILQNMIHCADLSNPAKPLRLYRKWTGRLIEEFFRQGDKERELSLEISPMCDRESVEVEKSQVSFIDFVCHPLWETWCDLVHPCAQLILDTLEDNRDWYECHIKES
ASSAY_REMARKS: biochemical
MEASUREMENT_CONDITIONS: recombinant catalytic domain; mean ± SD (number of assays) or two single assay values; read-out: SmPDE4A IC50
pIC50: −log10 of the molar value.
MEASURED_ATTRIBUTE: pIC50

[I] CC(C)S(=O)(=O)c1ccc(Oc2ccc3c(c2)COB3O)cc1 [Compound 6]
[II] N#Cc1ccc(Oc2ccc3c(c2)COB3O)cc1O [Compound 7]
Which record would sort first by descending pIC50, I or II ? Refer to your chosen item by its label in the answer. II
(II: 6.91, I: 6.38)

----------
The reader will find reported fold induction at 10 µM values listed item by item below.
Tested on: adult S. mansoni
ASSAY_REMARKS: Wormassay adult worm motility
Assay type: cell-based
MEASUREMENT_CONDITIONS: Schistosoma mansoni, 1 h, Wormassay, 10 μM after 1 h; read-out: Adult motility (-fold increase vs. DMSO controls)
Method: Adult schistosome screens were performed in 24-well plates (Corning Inc., cat. # 3544) using five worm pairs per well in a final volume of 2 ml of the above Basch medium. Compound was added in a volume of 1 μl DMSO such that the final concentration was 10 μM. Incubations were maintained for 3 days at 37°C under 5% CO2. […]
# output: bare number, no unit

Worked examples, 5 compounds total:
SMILES_REPRESENTATION: CN(C)C(=O)CCCOc1nc(Oc2ccc3c(c2)COB3O)ccc1C#N
MEASURED_ATTRIBUTE: fold induction at 10 µM
REPORTED_MEASUREMENT: 7.1
--
SMILES_REPRESENTATION: N#Cc1ccc(Oc2ccc3c(c2)COB3O)cc1O
MEASURED_ATTRIBUTE: fold induction at 10 µM
REPORTED_MEASUREMENT: 1.1
--
SMILES_REPRESENTATION: CC(C)S(=O)(=O)c1ccc(Oc2ccc3c(c2)COB3O)cc1
MEASURED_ATTRIBUTE: fold induction at 10 µM
REPORTED_MEASUREMENT: 1.5
--
SMILES_REPRESENTATION: CC(=O)CCCOc1nc(Oc2cc(F)c3c(c2)COB3O)c(Cl)cc1C#N
MEASURED_ATTRIBUTE: fold induction at 10 µM
REPORTED_MEASUREMENT: 9.9
--
SMILES_REPRESENTATION: CC(C)OCCOc1nc(Oc2ccc3c(c2)COB3O)ccc1C#N
MEASURED_ATTRIBUTE: fold induction at 10 µM
REPORTED_MEASUREMENT: 5.7

# next compound below
Please report the measured fold induction at 10 µM for CC(=O)CCCOc1nc(Oc2ccc3c(c2)COB3O)c(Cl)cc1C#N 7.9

----------
STUDY_TARGET: huPDE4B2 (Homo sapiens, UniProt Q07343)
Sequence (Q07343 324-659): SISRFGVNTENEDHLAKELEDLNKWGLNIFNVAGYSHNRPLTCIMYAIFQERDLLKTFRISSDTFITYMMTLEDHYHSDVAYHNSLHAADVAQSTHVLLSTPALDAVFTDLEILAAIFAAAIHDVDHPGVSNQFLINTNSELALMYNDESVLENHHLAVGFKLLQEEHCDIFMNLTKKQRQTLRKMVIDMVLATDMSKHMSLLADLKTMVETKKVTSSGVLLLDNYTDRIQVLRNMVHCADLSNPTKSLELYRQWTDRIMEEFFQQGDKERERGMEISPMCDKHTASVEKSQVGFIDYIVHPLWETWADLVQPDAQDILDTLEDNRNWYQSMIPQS
MEASURED_ATTRIBUTE: IC50 (nM)
// return numeric value only (unit: nM, not printed)

# return IC50 for CC(C)OCCOc1nc(Oc2ccc3c(c2)COB3O)ccc1C#N [Compound 4] , test system: huPDE4B2 (Homo sapiens, UniProt Q07343) 3.8
